Overview of reported pKd across a group of substances:
Assay: Peptide titrations by SUVs followed by tryptophan fluorescence (solution-to-membrane partition)
Format: physicochemical
Settings: converted from KX: [W]/KX = Kd, [W] = 55.5 M; read-out: Kd for POPC:POPG 8:2
pKd: −log10 of the molar value.

{"Substance": "Ac-ASAHWGQRALQGAQAVAAAQRLVSAIALMTQ-NH2 [P454 H477S]", "pKd": 3.80}
{"Substance": "Ac-ASAHWGQRALQGAQAVAAAQRAVHAIALMTQ-NH2 [P454 L475A]", "pKd": 3.80}
{"Substance": "Ac-ASAHWGQRALQGAQAVAAAQRLVSAAALMTQ-NH2 [P454 H477S-I479A]", "pKd": 3.28}
{"Substance": "Ac-ASAHAGQRALQGAQAVAAAQRLVHAAALMTQ-NH2 [P454 W458A-I479A]", "pKd": 1.88}
{"Substance": "Ac-ASAHWGQRALQGAQAVAAAQRLVHAVALMTQ-NH2 [P454 I479V]", "pKd": 4.00}
{"Substance": "Ac-ASAHWGQRAAQGAQAVAAAQRLVHAIALMTQ-NH2 [P454 L463A]", "pKd": 4.05}
{"Substance": "Ac-ASAHWGQRALQGAQAVAAAQRAVSAAALMTQ-NH2 [P454 L475A-H477S-I479A]", "pKd": 2.50}
{"Substance": "Ac-ASAHWGQQALQGAQAVAAAQQLVHAIALMTQ-NH2 [P454 R12Q]", "pKd": 3.10}
{"Substance": "Ac-ASAHWGQKALQGAQAVAAAQKLVHAIALMTQ-NH2 [P454 R12K]", "pKd": 3.59}
{"Substance": "Ac-ASAHAGQRAAQGAQAVAAAQRLVHAIALMTQ-NH2 [P454 W458A-L463A]", "pKd": 2.59}
{"Substance": "Ac-ASAHWGQRAAQGAQAVAAAQRAVSAAALMTQ-NH2 [P454 L463A-L475A-H477S-I479A]", "pKd": 2.80}
{"Substance": "Ac-ASAHWGQRALQGAQAVAAAQRLVHAAALMTQ-NH2 [P454 I479A]", "pKd": 3.77}
{"Substance": "Ac-ASAHWGQRALQGAQAVAAAQRLVHAIAAMTQ-NH2 [P454 L481A]", "pKd": 4.15}
{"Substance": "Ac-ASAHWGQAALQGAQAVAAAQALVHAIALMTQ-NH2 [P454 R12A]", "pKd": 3.70}
{"Substance": "Ac-ASAHWGQRALQGAQAVAAAQQLVHAIALMTQ-NH2 [P454 R2Q]", "pKd": 3.43}
{"Substance": "Ac-ASAHWGQQALQGAQAVAAAQRLVHAIALMTQ-NH2 [P454 R1Q]", "pKd": 3.54}
{"Substance": "Ac-ASAHWGQRALQGAQAVAAAQRLVHALALMTQ-NH2 [P454 I479L]", "pKd": 4.10}

Values from paper PMC8097335
